- Test system: hCRTH2 (Homo sapiens, UniProt Q9Y5Y4)
- Construct: expressed in transfected cells; host or cells: HEK (human embryonic kidney) cells expressing hCRTH2; membrane preparation
- Sequence (Q9Y5Y4 whole entry): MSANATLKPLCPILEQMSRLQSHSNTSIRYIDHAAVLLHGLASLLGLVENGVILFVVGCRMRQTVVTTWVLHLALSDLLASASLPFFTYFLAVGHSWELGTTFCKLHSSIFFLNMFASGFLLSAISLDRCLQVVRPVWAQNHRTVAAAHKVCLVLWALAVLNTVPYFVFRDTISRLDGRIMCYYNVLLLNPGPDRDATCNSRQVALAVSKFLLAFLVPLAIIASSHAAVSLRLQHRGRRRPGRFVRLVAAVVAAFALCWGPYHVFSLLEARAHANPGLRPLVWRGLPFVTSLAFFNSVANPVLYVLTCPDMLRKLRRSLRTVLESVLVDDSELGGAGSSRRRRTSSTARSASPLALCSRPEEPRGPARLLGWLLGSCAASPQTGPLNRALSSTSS
- Assay method text: Radioligand binding assay ([3H]PGD2 competition, HEK-hCRTH2 membranes)
- Setup conditions: [3H]PGD2 competition, Table B
Quantity: Ki

Consider the worked cases shown below.
{"Compound": "Cc1ccccc1N1CCN(C(=O)c2ccc3nc(-c4ccc(Cl)cc4)c(CCCCC(=O)O)nc3c2)CC1", "Test system": "hCRTH2 (Homo sapiens, UniProt Q9Y5Y4)", "Experimental result": "0.1 to 2 nM"}
{"Compound": "O=C(O)CCCCc1nc2cc(C(=O)N[C@H]3CC(=O)Nc4ccc(F)cc43)ccc2nc1-c1ccccc1", "Test system": "hCRTH2 (Homo sapiens, UniProt Q9Y5Y4)", "Experimental result": "20.1 to 200 nM"}
{"Compound": "O=C(O)CCCCc1nc2cc(C(=O)N3CCN(c4ccccn4)CC3)ccc2nc1-c1ccc(Cl)cc1", "Test system": "hCRTH2 (Homo sapiens, UniProt Q9Y5Y4)", "Experimental result": "2.1 to 20 nM"}

Problem: Note down Ki recorded for O=C(O)CCCCc1nc2cc(C(=O)N3CCc4oc(C5CC5)nc4C3)ccc2nc1-c1ccc(Cl)cc1
Result: 20.1 to 200 nM

Problem: Give me measured Ki, please, for this compound: O=C(O)CCCCc1nc2cc(C(=O)NC3CCCc4cc(OCc5ccccc5)ccc43)ccc2nc1-c1ccc(Cl)cc1 (centres unmarked)
Result: 2.1 to 20 nM

Problem: Indicate its recorded Ki; the compound in question is CS(=O)(=O)N1CCC(NC(=O)c2ccc3nc(-c4ccc(Cl)cc4)c(CCCCC(=O)O)nc3c2)c2ccccc21 (centres unmarked)
Result: 0.1 to 2 nM

Problem: Please report Ki for the following compound: O=C(O)CCCCc1nc2cc(C(=O)N[C@H](CO)c3ccc(F)cc3)ccc2nc1-c1ccc(Cl)cc1
Result: 2.1 to 20 nM

Problem: Note down Ki recorded for O=C(O)CCCCc1nc2cc(C(=O)N3CCO[C@@H](c4ccc(C(F)(F)F)cc4)C3)ccc2nc1-c1ccc(Cl)cc1
Result: 2.1 to 20 nM

Values compiled from patent US9469615B2.
